- target_system: DPR-1 (Cycloclasticus sp. P1)
- Sequence (K0C5A9 1-242): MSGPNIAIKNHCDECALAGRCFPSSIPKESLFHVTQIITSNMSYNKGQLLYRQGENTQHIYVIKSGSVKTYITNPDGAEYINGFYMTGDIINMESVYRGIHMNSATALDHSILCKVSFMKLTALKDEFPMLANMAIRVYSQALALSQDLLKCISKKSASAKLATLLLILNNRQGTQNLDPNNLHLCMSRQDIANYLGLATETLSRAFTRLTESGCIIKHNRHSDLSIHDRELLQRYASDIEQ
- method_description: SPR binding of cyclic nucleotides to DPR-1 sensor chip
- test_conditions: read-out: affinity constant (KD), DPR-1, 20°C
measurement_name: Kd (µM)
// note: answer is a bare numeric in µM

*Q* Bench note: what Kd did Nc1ncnc2c1ncn2[C@@H]1O[C@@H]2COP(=O)(O)O[C@H]2[C@H]1O show?
*A* 3.3

###

- target_system: DPR-2
- method_description: SPR (Biacore T200) with DPR-1, DPR-2 or their quadruple mutants immobilized on CM5 chips and cyclic nucleotides injected in 20 mM MOPS pH 8.0, 300 mM NaCl, 0.005% P20, 0.1 mg/ml BSA at 30 ul/min; 20 °C in results, 25 °C in methods; 1:1 binding fit (legend: steady-state affinity model).
- test_conditions: read-out: affinity constant (KD); n = 3
measurement_name: Kd

*Q* Bench note: what Kd did Nc1ncnc2c1ncn2[C@@H]1O[C@@H]2COP(=O)(O)O[C@H]3[C@@H](O)[C@H](n4cnc5c(N)ncnc54)O[C@@H]3COP(=O)(O)O[C@H]2[C@H]1O show?
*A* 2600 nM

###

- target_system: UniProtKB K0C733
- Sequence (K0C733 1-238): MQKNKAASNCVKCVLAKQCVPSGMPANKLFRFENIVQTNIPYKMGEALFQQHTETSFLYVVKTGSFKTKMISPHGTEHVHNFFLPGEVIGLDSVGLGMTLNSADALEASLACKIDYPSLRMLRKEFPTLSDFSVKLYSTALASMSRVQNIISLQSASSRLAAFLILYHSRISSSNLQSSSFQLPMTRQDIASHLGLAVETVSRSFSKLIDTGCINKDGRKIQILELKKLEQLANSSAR
- method_description: SPR binding of cyclic nucleotides to DPR-2 sensor chip
- test_conditions: read-out: affinity constant (KD), DPR-2, 20°C
measurement_name: Kd (µM)
// note: answer is a bare numeric in µM

*Q* Bench note: what Kd did Nc1ncnc2c1ncn2[C@@H]1O[C@@H]2COP(=O)(O)O[C@H]2[C@H]1O show?
*A* 3.5

###

- target_system: DPR-1
- method_description: SPR (Biacore T200) with DPR-1, DPR-2 or their quadruple mutants immobilized on CM5 chips and cyclic nucleotides injected in 20 mM MOPS pH 8.0, 300 mM NaCl, 0.005% P20, 0.1 mg/ml BSA at 30 ul/min; 20 °C in results, 25 °C in methods; 1:1 binding fit (legend: steady-state affinity model).
- test_conditions: read-out: affinity constant (KD); n = 3
measurement_name: pKd
API: returns pKd as number; meaning -log10 of concentration in mol/L.

*Q* Bench note: what pKd did Nc1ncnc2c1ncn2[C@@H]1O[C@@H]2COP(=O)(O)O[C@H]3[C@@H](O)[C@H](n4cnc5c(N)ncnc54)O[C@@H]3COP(=O)(O)O[C@H]2[C@H]1O show?
*A* 5.39

###

- target_system: PdgC^L68A/V73A/K77G/I115G
- method_description: SPR binding of PAHs to four-site mutated PdgC sensor chip
- Parameters: species or system Cycloclasticus sp. strain P1
- test_conditions: four-site mutation PdgC, listed as Pyrene, read-out: affinity constant (KD)
- Description: The immobilization of the PdgC PAS domain on the sensor surface was carried out as previously described ([68]). Briefly, PdgC was diluted in 10 mM sodium acetate (pH 5.5) and immobilized on a CM5 sensor chip using the amine coupling method by following the manufacturer’s protocol. […] PAH compounds were diluted in running buffer (phosphate-buffered saline [PBS] containing 5% DMSO) to a concentration of 50 μM. […] Sensograms of these PAHs were recorded and analyzed. […]
measurement_name: pKd
API: returns pKd as number; meaning -log10 of concentration in mol/L.

*Q* # returns recorded pKd (system: PdgC^L68A/V73A/K77G/I115G) for c1cc2ccc3cccc4ccc(c1)c2c34
*A* 4.00
